Entries and their IC50
# target of assay: Human Factor XIIa (Homo sapiens (Human), UniProt P00748)
# Sequence (P00748 373-615): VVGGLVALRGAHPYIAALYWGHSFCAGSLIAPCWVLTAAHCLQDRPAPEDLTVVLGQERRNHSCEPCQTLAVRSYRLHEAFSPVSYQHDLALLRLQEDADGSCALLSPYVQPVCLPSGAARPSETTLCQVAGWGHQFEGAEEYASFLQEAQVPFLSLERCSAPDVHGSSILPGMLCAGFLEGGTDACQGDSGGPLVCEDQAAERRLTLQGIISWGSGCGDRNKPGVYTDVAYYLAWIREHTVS

Check out these entries, answers already filled in.
>  <molecule>
COCc1nn(Cc2ccc(Cn3ccccc3=O)cc2)cc1C(=O)NCc1cc(OC)c(C)cn1

>  <IC50>
> 40 µM

$$$$
>  <molecule>
COCc1nn(Cc2ccc(Cn3cccn3)cc2)cc1C(=O)NCc1cccc(Cl)c1F [Reference Example J, reference compound]

>  <IC50>
> 40 µM

$$$$
>  <molecule>
COCc1nn(Cc2cnc(N3CCCC3)nc2)cc1C(=O)NCc1cc(OC)ccc1-n1cnnn1

>  <IC50>
> 4 µM

$$$$

Okay, next one:
Ask | Give IC50 (Human Factor XIIa (Homo sapiens (Human), UniProt P00748)) of the following molecule: COCc1nn(Cc2ccc(Cn3ccccc3=O)cc2)cc1C(=O)NCc1c(C#N)ccc(OC)c1F [Reference Example E, reference compound]
Reply | > 40 µM

---

# target of assay: Human KLK1 (Homo sapiens (Human), UniProt P06870)
# Sequence (P06870 25-262): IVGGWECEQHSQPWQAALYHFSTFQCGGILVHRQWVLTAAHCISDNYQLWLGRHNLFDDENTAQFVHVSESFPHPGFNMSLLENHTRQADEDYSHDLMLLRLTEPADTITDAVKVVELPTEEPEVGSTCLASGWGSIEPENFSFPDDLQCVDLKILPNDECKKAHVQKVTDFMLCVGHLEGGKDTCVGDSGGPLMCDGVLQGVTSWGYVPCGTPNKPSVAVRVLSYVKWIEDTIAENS
# test protocol: Determination of the IC50 for KLK1
# Type: biochemical
# assay context: 25° C., substrate H-DVal-Leu-Arg-AFC
IC50 values by entry

Would you please look over these solved cases?
>  <compound>
COCc1nn(Cc2ccc(Cn3ccccc3=O)cc2)cc1C(=O)NCc1ncccc1C#N

>  <target of assay>
Human KLK1 (Homo sapiens (Human), UniProt P06870)

>  <measured>
> 4 µM

$$$$
>  <compound>
COCc1nn(Cc2ccc(N3CCC(F)(F)C3)nc2)cc1C(=O)NCc1c(-n2cnnn2)ccc(OC)c1F

>  <target of assay>
Human KLK1 (Homo sapiens (Human), UniProt P06870)

>  <measured>
> 40 µM

$$$$
>  <compound>
COCc1nn(Cc2ccc(Cn3ccccc3=O)nc2)cc1C(=O)NCc1c(C#N)ccc(OC)c1F

>  <target of assay>
Human KLK1 (Homo sapiens (Human), UniProt P06870)

>  <measured>
> 4 µM

$$$$
>  <compound>
COCc1nn(Cc2ccc(Cn3cccn3)cc2)cc1C(=O)NCc1cccc(Cl)c1 [Reference Example I, reference compound]

>  <target of assay>
Human KLK1 (Homo sapiens (Human), UniProt P06870)

>  <measured>
> 40 µM

$$$$
>  <compound>
COCc1nn(Cc2ccc(Cn3ccccc3=O)cc2)cc1C(=O)NCc1nccc(C)c1Cl

>  <target of assay>
Human KLK1 (Homo sapiens (Human), UniProt P06870)

>  <measured>
> 40 µM

$$$$
>  <compound>
COCc1nn(Cc2cnc(N3CCC(F)(F)C3)nc2)cc1C(=O)NCc1c(-n2cnnn2)ccc(OC)c1F

>  <target of assay>
Human KLK1 (Homo sapiens (Human), UniProt P06870)

>  <measured>
> 40 µM

$$$$

Ask | Please give the measured IC50 for this compound: COCc1nn(Cc2ccc(Cn3ccccc3=O)cc2)cc1C(=O)NCc1c(F)cccc1-n1cnnn1 [Reference Example H, reference compound]
Reply | > 40 µM

---

# test protocol: Intrinsic clearance in human liver microsomes
# Type: in vitro ADME
# assay context: human liver microsomes 0.5 mg/mL, 5 μM test compound, 37° C.; read-out: Human liver microsome (Clint μL/min/mg protein)
measurement name: microsomal CLint at 5 μM (µL/min/mg)
// return numeric value only (unit: µL/min/mg, not printed)

Illustrative cases are given below, each with its answer.
>  <molecule>
COCc1nn(Cc2ccc(Cn3ccccc3=O)cc2)cc1C(=O)NCc1cc(OC)ccc1-n1cnnn1

>  <measured>
22

$$$$
>  <molecule>
COCc1nn(Cc2ccc(Cn3cccn3)cc2)cc1C(=O)NCc1cccc(Cl)c1F [Reference Example J, reference compound]

>  <measured>
110

$$$$
>  <molecule>
COCc1nn(Cc2ccc(Cn3cc(C)cn3)cc2)cc1C(=O)NCc1c(-n2cnnn2)ccc(OC)c1F

>  <measured>
90

$$$$
>  <molecule>
COc1ccnc(CNC(=O)c2cn(Cc3ccc(Cn4ccccc4=O)cc3)nc2C(F)(F)F)c1F

>  <measured>
42

$$$$

Here is the next item to consider.
Ask | Could you share which microsomal CLint at 5 μM value was measured for COCc1nn(Cc2ccc(Cn3ccccc3=O)cc2)cc1C(=O)NCc1cc(Cl)ccc1-n1cnnn1 ?
Reply | 32

---

# test protocol: Predicted plasma clearance (Clp), well-stirred model, rat
# Assay type: in vitro ADME
# assay context: percentage of hepatic blood flow
// values below are reported Predicted in vivo rat Clp (% LBF)
The figure you give is taken to be in % LBF; do not add the unit.

>  <compound>
COCc1nn(Cc2cnc(N3CCC(F)(F)C3)nc2)cc1C(=O)NCc1c(-n2cnnn2)ccc(OC)c1F

>  <measured>
3

$$$$
>  <compound>
COCc1nn(Cc2ccc(Cn3ccccc3=O)cc2)cc1C(=O)NCc1c(F)cccc1-n1cnnn1 [Reference Example H, reference compound]

>  <measured>
26

$$$$

Now for the compound whose Predicted in vivo rat Clp (% LBF) we want.
Ask | # query: Predicted in vivo rat Clp (% LBF) of entry COc1ccc(C#N)c(CNC(=O)c2cn(Cc3ccc(Cn4ccccc4=O)cc3)nc2N)c1F
Reply | 2

---

IC50 tested on Human KLK1 (Homo sapiens (Human), UniProt P06870): recorded values

These recorded examples may help you get a feel for the data.
>  <molecule>
COCc1nn(Cc2ccc(Cn3ccccc3=O)cc2)cc1C(=O)NCc1c(-n2cnnn2)ccc(OC)c1F [Example 39]

>  <IC50>
> 4 µM

$$$$
>  <molecule>
COCc1nn(Cc2ccc(Cn3cccn3)cc2)cc1C(=O)NCc1cccc(Cl)c1F [Reference Example J, reference compound]

>  <IC50>
> 40 µM

$$$$
>  <molecule>
COCc1nn(Cc2ccc(Cn3ccccc3=O)cc2)cc1C(=O)NCc1nn(C)cc1Cl [Example 34]

>  <IC50>
> 40 µM

$$$$

Ask | Find IC50 (Human KLK1 (Homo sapiens (Human), UniProt P06870)) for the entry COCc1nn(Cc2ccc(Cn3ccccc3=O)cc2)cc1C(=O)NCc1cc(OC)n(C)n1 [Example 31]
Reply | > 40 µM

Ask | For Human KLK1 (Homo sapiens (Human), UniProt P06870), provide IC50 of COc1cccc(CNC(=O)c2cn(Cc3ccc(N4CCCC4)nc3)nc2C(F)(F)F)c1F [Reference Example G, reference compound] please.
Reply | > 10 µM

Ask | Please provide the recorded IC50 for COCc1nn(Cc2ccc(Cn3ccccc3=O)cc2)cc1C(=O)NCc1ncc(C)c(OC)c1C [Example 11] , tested on Human KLK1 (Homo sapiens (Human), UniProt P06870).
Reply | > 40 µM

Ask | Which IC50 is reported with Human KLK1 (Homo sapiens (Human), UniProt P06870) for this entry: COc1ccc(C#N)c(CNC(=O)c2cn(Cc3ccc(Cn4ccccc4=O)cc3)nc2N)c1F [Example 43] ?
Reply | > 4 µM

Ask | Human KLK1 (Homo sapiens (Human), UniProt P06870) / IC50 / COCc1nn(Cc2ccc(Cn3ccccc3=O)cc2)cc1C(=O)NCc1cc(OC)ncn1 [Example 4] : value?
Reply | > 4 µM

---

# test protocol: Plasma protein binding (PPB), rapid equilibrium dialysis, rat plasma
# Assay type: in vitro ADME
# assay context: 5 μM test compound, dialysis 5 hrs at 37° C.
measurement name: fraction unbound at 5 h, 5 μM
// print number alone

>  <compound>
COCc1nn(Cc2ccc(Cn3ccccc3=O)cc2)cc1C(=O)NCc1c(F)cccc1-n1cnnn1 [Reference Example H, reference compound]

>  <measurement name>
fraction unbound at 5 h, 5 μM

>  <measured>
0.13

$$$$
>  <compound>
COCc1nn(Cc2ccc(Cn3cc(C)cn3)cc2)cc1C(=O)NCc1c(-n2cnnn2)ccc(OC)c1F [Example 60]

>  <measurement name>
fraction unbound at 5 h, 5 μM

>  <measured>
0.03

$$$$
>  <compound>
COCc1nn(Cc2cnc(N3CCCC3)nc2)cc1C(=O)NCc1cc(OC)ccc1-n1cnnn1 [Example 80]

>  <measurement name>
fraction unbound at 5 h, 5 μM

>  <measured>
0.04

$$$$

Ask | What fraction unbound at 5 h, 5 μM value was documented for this compound, COCc1nn(Cc2cnc(N3CCC(F)(F)C3)nc2)cc1C(=O)NCc1c(-n2cnnn2)ccc(OC)c1F [Example 86] ?
Reply | 0.03

Ask | Consider the compound COCc1nn(Cc2ccc(Cn3ccccc3=O)cc2)cc1C(=O)NCc1cc(OC)ccc1C#N [Example 37] and give its measured fraction unbound at 5 h, 5 μM.
Reply | 0.05

Ask | Which measured fraction unbound at 5 h, 5 μM value corresponds to COCc1nn(Cc2ccc(Cn3cc(F)ccc3=O)cc2)cc1C(=O)NCc1c(C#N)ccc(OC)c1F [Example 53] ?
Reply | 0.04

Ask | Param item = COCc1nn(Cc2cnc(N3CCCC3)nc2)cc1C(=O)NCc1c(-n2cnnn2)ccc(OC)c1F [Example 79] ; retrieve measured fraction unbound at 5 h, 5 μM.
Reply | 0.05

Ask | So what does the record say about fraction unbound at 5 h, 5 μM for COCc1nn(Cc2ccc(Cn3ccccc3=O)cc2)cc1C(=O)NCc1c(-n2cnnn2)ccc(OC)c1F [Example 39] ?
Reply | 0.11

Ask | So what's the measured fraction unbound at 5 h, 5 μM for this one? O=C(NCc1c(F)cccc1-n1cnnn1)c1cn(Cc2ccc(Cn3ccccc3=O)cc2)nc1C(F)(F)F [Example 64]
Reply | 0.09

Ask | I would be grateful if you could share the reported fraction unbound at 5 h, 5 μM for COc1ccnc(CNC(=O)c2cn(Cc3ccc(Cn4ccccc4=O)cc3)nc2N)c1F [Example 5] .
Reply | 0.36
